Target: Na⁺/H⁺ exchanger (Rattus norvegicus, UniProt P26431)
Construct: using the vascular smooth muscle cells isolated from the rat thoracic aorta; endogenous in cells; host or cells: primary vascular smooth muscle cells isolated from rat thoracic aorta
Sequence (P26431 whole entry): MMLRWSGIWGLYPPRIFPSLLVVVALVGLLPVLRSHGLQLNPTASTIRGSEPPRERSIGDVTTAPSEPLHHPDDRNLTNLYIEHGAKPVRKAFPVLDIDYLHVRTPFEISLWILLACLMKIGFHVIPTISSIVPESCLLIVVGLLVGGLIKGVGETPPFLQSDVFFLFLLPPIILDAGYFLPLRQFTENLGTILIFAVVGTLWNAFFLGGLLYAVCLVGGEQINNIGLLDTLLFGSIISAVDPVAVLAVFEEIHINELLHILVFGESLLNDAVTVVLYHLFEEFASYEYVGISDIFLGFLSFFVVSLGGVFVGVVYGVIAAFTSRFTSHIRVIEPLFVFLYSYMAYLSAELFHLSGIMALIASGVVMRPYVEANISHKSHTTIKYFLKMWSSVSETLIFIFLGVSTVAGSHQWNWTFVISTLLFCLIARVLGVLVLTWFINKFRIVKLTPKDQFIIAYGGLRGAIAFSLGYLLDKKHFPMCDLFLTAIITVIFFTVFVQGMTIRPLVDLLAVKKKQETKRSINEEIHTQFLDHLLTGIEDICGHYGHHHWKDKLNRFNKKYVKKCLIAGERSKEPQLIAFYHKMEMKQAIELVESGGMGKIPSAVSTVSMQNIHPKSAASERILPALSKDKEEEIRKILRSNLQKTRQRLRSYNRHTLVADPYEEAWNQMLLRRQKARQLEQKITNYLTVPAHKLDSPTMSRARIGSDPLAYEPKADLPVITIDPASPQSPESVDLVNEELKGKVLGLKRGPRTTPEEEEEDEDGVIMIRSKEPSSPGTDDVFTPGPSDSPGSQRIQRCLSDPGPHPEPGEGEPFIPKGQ
Test: Inhibition of Na+/H+ exchanger activity in vitro (change in cell viability during acid loading)
Format: cell-based
Conditions: minimum effective concentration (MEC), vascular smooth muscle cells isolated from the rat thoracic aorta
Counter-ions that a name gives are not always drawn.
measurementName: Inhibition of Na^+/H^+ Exchanger MEC (µM)
// units = µM; emit number, no label

Ask | Give the value of Inhibition of Na^+/H^+ Exchanger MEC reported for the following: CN(C)CCCOc1ccc(Cl)c2cc(C(=O)NC(=N)N)n(C)c12 [Example 74, dihydrochloride]
Reply | 0.1

Ask | Give the value of Inhibition of Na^+/H^+ Exchanger MEC reported for the following: NC(N)=NC(=O)c1nc(Cl)c(N2CCCCCC2)nc1N [5-Hexamethylene amiloride, reference compound]
Reply | 0.3

Ask | Give the value of Inhibition of Na^+/H^+ Exchanger MEC reported for the following: CN(C)c1nc(N)c(C(=O)N=C(N)N)nc1Cl [Dimethyl amiloride, reference compound]
Reply | 3.0

Ask | Give the value of Inhibition of Na^+/H^+ Exchanger MEC reported for the following: Cn1c(C(=O)NC(=N)N)cc2c(Cl)cc(OCCN)cc21 [Example 175, dihydrochloride]
Reply | 0.03

Data provenance: patent EP0708091A1
